# protocol_description: viability loss in pontine glioma line – cell-based, JHH-DIPG-1, MIPE4.0, CellTiter-Glo, qHTS, dose response (AID 1347062);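 as to AC50: cells exposed to compound for two days before readout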
# condition_label: JHH-DIPG-1 viability, CellTiter-Glo ATP luminescence
Inconclusive results are not listed. Activity calls are given as the source filed them. The limit is not given here; nearly all actives have AC50 up to about 27 µM.
Form entry, call: pick from active, inactive

Study these solved cases before continuing.
molecule: COc1cc2c(Nc3ccc(Br)cc3F)ncnc2cc1OCC1CCN(C)CC1
class_label: active

molecule: COc1ccccc1N1CCN(CC(O)COc2cccc3ccccc23)CC1 (configuration not stated)
class_label: inactive

molecule: NCCCCCC(=O)O
class_label: inactive

molecule: COCCCOc1cc(C[C@@H](C[C@H](N)[C@@H](O)C[C@H](C(=O)NCC(C)(C)C(N)=O)C(C)C)C(C)C)ccc1OC
class_label: inactive

molecule: CCC(=O)O[C@]1(C(=O)SCF)[C@H](C)C[C@H]2[C@@H]3C[C@H](F)C4=CC(=O)C=C[C@]4(C)[C@@]3(F)[C@@H](O)C[C@@]21C
class_label: inactive

molecule: COC(=O)[C@@H]1[C@H]2C[C@H]3c4[nH]c5ccccc5c4CCN3C[C@@H]2CC[C@@H]1O
class_label: inactive

molecule: C1CCC(C(CC2CCCCN2)C2CCCCC2)CC1 (configuration not stated)
class_label: active

molecule: COC(=O)C1=C(C)NC(C)=C(C(=O)OC(C)C)C1c1cccc2nonc12 (configuration not stated)
class_label: inactive

molecule: Cn1cnc2c1c(=O)[nH]c(=O)n2C
class_label: active

molecule: CN(C)c1ccc(C(=C2C=CC(=[N+](C)C)C=C2)c2ccc(N(C)C)cc2)cc1
class_label: active

Query: Could you check what this test reported for CCCN[C@H]1CCc2nc(N)sc2C1 ?
Reply: inactive

Query: Could you check what this test reported for O=C1N(c2ccccc2)c2ccccc2C1(Cc1ccncc1)Cc1ccncc1 ?
Reply: inactive

Query: Could you check what this test reported for COc1ccnc(CS(=O)c2nc3ccc(OC(F)F)cc3[nH]2)c1OC (configuration not stated) ?
Reply: inactive

Query: Could you check what this test reported for CN1CCN(CCCN2c3ccccc3Sc3ccc(Cl)cc32)CC1 ?
Reply: active

Query: Could you check what this test reported for O=c1oc2c(O)c(O)cc3c(=O)oc4c(O)c(O)cc1c4c23 ?
Reply: inactive

Query: Could you check what this test reported for O=C(N[C@H](CO)[C@H](O)c1ccc([N+](=O)[O-])cc1)C(Cl)Cl ?
Reply: inactive

Query: Could you check what this test reported for CCCc1cc(C(N)=S)ccn1 ?
Reply: inactive

Query: Could you check what this test reported for Nc1nc(=S)c2[nH]cnc2[nH]1 ?
Reply: active

Query: Could you check what this test reported for Cc1onc(-c2ccccc2)c1C(=O)N[C@@H]1C(=O)N2[C@@H]1SC(C)(C)[C@@H]2C(=O)O ?
Reply: inactive

Query: Could you check what this test reported for CN(C/C=C/C#CC(C)(C)C)Cc1cccc2ccccc12 ?
Reply: inactive

Query: Could you check what this test reported for CC(=O)Oc1ccccc1C(=O)Nc1ncc([N+](=O)[O-])s1 ?
Reply: active

Query: Could you check what this test reported for C/C=C(/C(=C/C)c1ccc(O)cc1)c1ccc(O)cc1 ?
Reply: inactive
